Please go through the items and note down their INHIBITION.
System: Plasmodium berghei
Experiment: Screen against P. berghei liver stage (PbLuc), transformed with Luciferase, at 10uM
Type: functional, HepG2
Conditions: tested at 10 uM
In all, about 69,000 compounds went through this assay and about 8,600 (12%) showed an effect of 50% or more. Only a selection was taken, and strong results are over-represented in it overall.

# returns recorded INHIBITION (system: Plasmodium berghei) for COC[C@@]12CCC[C@@H]1CN(C(=O)Cc1ccccn1)C2 39.4%

And the next one, Cc1cc(C(=O)Nc2cnn(CC(F)(F)F)c2)nc(N(C)C)n1 ? 0.91%

Same thing, different compound: Cc1cccc(CN2CCC(c3nnsc3S(C)(=O)=O)CC2)c1 18.9%

Then what about the compound Cc1cc(N2CCC(O)(CN(C)C)C2)c2cc3c(cc2n1)OCO3 (stereo not given) ? -7.02%

Record: CCc1ncnc2c1CCN(Cc1ccccn1)CC2 -9.48%

What about Cc1cccc(CS(=O)(=O)CC(=O)NCCCOC(C)C)c1 ? 45%

Now the same for Cc1nn(CCO)c(C)c1CN1CCN(C2CCCCC2)C(=O)C1 16.9%

Next compound: CCN1CCN(C2CCN(Cc3noc(C)n3)CC2)C1=O 51.2%

Similarly, Cn1ccc(CN2CCC(NC(=O)C3CCCCC3)CC2)cc1=O ? 5.907%

Item: Cc1nc(CN(C)CC(c2cccs2)N2CCOCC2)no1 (stereo not given) 15.3%

Quick one: CCN(Cc1ccc(Cl)c(Cl)c1)C(=O)CCn1cncn1 19.3%

Ok, now CC(C)CS(=O)(=O)CC(=O)NC(C)(C)c1cccc(F)c1 52.2%

And then CS(=O)(=O)c1snnc1C1CCCN(Cc2ccncc2)C1 (stereo not given) , what is it? 9.93%

// same read-out, input: CNc1ncc(CN2CCC(c3nnsc3S(C)(=O)=O)CC2)cn1 21.9%

Input Cc1ccc(Oc2ncccc2CNC(=O)NC2CCCCC2)cn1 19.4%

Same again, this time with CS(=O)(=O)CCC(=O)Nc1ccsc1 -120%

Try this compound too: Cc1c[nH]c(C(=O)N2CCn3nc(C(=O)NC4CC4)cc3C2)n1 53.7%

Now consider CCc1ncc(C(=O)N(CCOC)Cc2nccs2)cn1 and answer again. 50.5%

What do we get for CCC(C)(COc1ncccc1Cl)NCC(=O)NC1CCCCC1 (stereo not given) ? 68.5%

Also Cc1nn(C)c2cnn(CCCNS(=O)(=O)Cc3ccccc3)c12 ? 41.6%

For COCc1cncc2c1CCN(Cc1cccnc1)C2 then? 24.8%

Request: CNC(=O)CS(=O)(=O)Cc1coc(-c2cccc(F)c2)n1 -11.3%

Would you kindly repeat that for Cc1nc(C(=O)N(C)C)nn1-c1ccccc1C(C)C ? 30.8%

What do you have for CC(C)N(C)Cc1cncc2c1CCN(CC1CC1)C2 ? 44.8%

Then CCC(C)(COc1ncccc1Cl)NCC(=O)Nc1ccc(Br)cn1 (stereo not given) ? 36.5%

Try Cc1cccc(C(C)(C)NC(=O)CS(=O)(=O)CC(C)C)c1 next. 64.5%

Next entry: CCc1ncc(C(=O)N(CC)CCOC)cn1 29.2%

Please answer likewise for CC(C)N(C)Cc1cncc2c1CCN(CC(=O)N(C)C)C2 12.2%

Try this compound next: CN1CCc2c(C#N)c(NCCCN3CCOCC3)n3cnnc3c2C1 3.95%

What about this compound? CN(C)Cc1cncc2c1CCN(Cc1ccoc1)C2 24.9%
